System: Setaria faberi (SETFA)
Experiment: B1 Post-emergence efficacy, glasshouse pot test
Format: in vivo
Conditions: post-emergence spray, 1000 g/ha, evaluated after 13 days
Consider the following compounds; for each one, report its percentage damage caused to the plant, five point scale, SETFA.

Problem: Please give the measured percentage damage caused to the plant, five point scale, SETFA for this compound: C#CCn1c(=O)c(-c2c(Cl)ccc(Cl)c2OCc2cnc(Cl)s2)c(O)c2scnc21 [Compound 1.19]
Solution: 5 (5=80-100%)

Problem: Please give the measured percentage damage caused to the plant, five point scale, SETFA for this compound: C#CCn1c(=O)c(-c2c(F)ccc(Cl)c2OCc2ccccc2)c(O)c2csnc21 [Compound 15.22]
Solution: 3 (3=40-59%)

Problem: Please give the measured percentage damage caused to the plant, five point scale, SETFA for this compound: C#CCn1c(=O)c(-c2c(Cl)ccc(Cl)c2OCc2ccccc2)c(O)c2nsnc21 [Compound 9.22]
Solution: 5 (5=80-100%)

Problem: Please give the measured percentage damage caused to the plant, five point scale, SETFA for this compound: O=S1(=O)C(c2c(Cl)ccc(Cl)c2OCc2ccccc2)=C(O)c2scnc2N1CC(F)F [Compound 13.22]
Solution: 2 (2=20-39%)

Problem: Please give the measured percentage damage caused to the plant, five point scale, SETFA for this compound: O=c1c(-c2c(Cl)ccc(Cl)c2OCc2cnc(Cl)s2)c(O)c2scnc2n1CC(F)F [Compound 3.19]
Solution: 5 (5=80-100%)

Problem: Please give the measured percentage damage caused to the plant, five point scale, SETFA for this compound: C#CCN1c2ncsc2C(O)=C(c2c(Cl)ccc(Cl)c2OCc2ccccc2)S1(=O)=O [Compound 5.22]
Solution: 2 (2=20-39%)

* * *

Consider the following compounds; for each one, report its percentage damage caused to the plant, five point scale, SETFA.
Test system: Setaria faberi (SETFA)
Assay: B1 Post-emergence efficacy, glasshouse pot test
Format: in vivo
Settings: post-emergence spray, 250 g/ha, evaluated after 13 days

Problem: Please give the measured percentage damage caused to the plant, five point scale, SETFA for this compound: C#CCn1c(=O)c(-c2c(F)ccc(Cl)c2OCc2ccccc2)c(O)c2csnc21
Solution: 1 (1=0-19%)

Problem: Please give the measured percentage damage caused to the plant, five point scale, SETFA for this compound: C#CCN1c2ncsc2C(O)=C(c2c(Cl)ccc(Cl)c2OCc2ccccc2)S1(=O)=O
Solution: 1 (1=0-19%)

Problem: Please give the measured percentage damage caused to the plant, five point scale, SETFA for this compound: O=S1(=O)C(c2c(Cl)ccc(Cl)c2OCc2ccccc2)=C(O)c2scnc2N1CC(F)F
Solution: 1 (1=0-19%)

Problem: Please give the measured percentage damage caused to the plant, five point scale, SETFA for this compound: C#CCn1c(=O)c(-c2c(Cl)ccc(Cl)c2OCc2cnc(Cl)s2)c(O)c2scnc21
Solution: 5 (5=80-100%)

Problem: Please give the measured percentage damage caused to the plant, five point scale, SETFA for this compound: O=c1c(-c2c(Cl)ccc(Cl)c2OCc2cnc(Cl)s2)c(O)c2scnc2n1CC(F)F
Solution: 5 (5=80-100%)

Problem: Please give the measured percentage damage caused to the plant, five point scale, SETFA for this compound: C#CCn1c(=O)c(-c2c(Cl)ccc(Cl)c2OCc2ccccc2)c(O)c2nsnc21
Solution: 2 (2=20-39%)

* * *

Tested on: Solanum nigrum (SOLNI)
Assay: B1 Post-emergence efficacy, glasshouse pot test
Format: in vivo
Details: post-emergence spray, 250 g/ha, evaluated after 13 days
Consider the following molecules; for each one, report its percentage damage caused to the plant, five point scale, SOLNI.

Problem: Give percentage damage caused to the plant, five point scale, SOLNI (Solanum nigrum (SOLNI)) of the following molecule: C#CCn1c(=O)c(-c2c(Cl)ccc(Cl)c2OCc2cnc(Cl)s2)c(O)c2scnc21
Solution: 5 (5=80-100%)

Problem: Give percentage damage caused to the plant, five point scale, SOLNI (Solanum nigrum (SOLNI)) of the following molecule: C#CCn1c(=O)c(-c2c(Cl)ccc(Cl)c2OCc2ccccc2)c(O)c2nsnc21
Solution: 4 (4=60-79%)

Problem: Give percentage damage caused to the plant, five point scale, SOLNI (Solanum nigrum (SOLNI)) of the following molecule: C#CCn1c(=O)c(-c2c(F)ccc(Cl)c2OCc2ccccc2)c(O)c2csnc21
Solution: 4 (4=60-79%)

Problem: Give percentage damage caused to the plant, five point scale, SOLNI (Solanum nigrum (SOLNI)) of the following molecule: C#CCN1c2ncsc2C(O)=C(c2c(Cl)ccc(Cl)c2OCc2ccccc2)S1(=O)=O
Solution: 1 (1=0-19%)

Problem: Give percentage damage caused to the plant, five point scale, SOLNI (Solanum nigrum (SOLNI)) of the following molecule: O=c1c(-c2c(Cl)ccc(Cl)c2OCc2cnc(Cl)s2)c(O)c2scnc2n1CC(F)F
Solution: 5 (5=80-100%)

Problem: Give percentage damage caused to the plant, five point scale, SOLNI (Solanum nigrum (SOLNI)) of the following molecule: O=S1(=O)C(c2c(Cl)ccc(Cl)c2OCc2ccccc2)=C(O)c2scnc2N1CC(F)F
Solution: 3 (3=40-59%)
